- Tested on: C. albicans ATCC90028
- MEASUREMENT DESCRIPTION: Antifungal activity test, MIC by broth microdilution (CLSI M27-A3)
- Format: cell-based
- CONDITIONS USED: C. albicans ATCC90028; broth microdilution, 35° C., 24-48 hours, 100% inhibition
# key: entry, value: MIC
Just the number please, in µg/mL, no unit attached.

C[C@@H]1[C@H](O)[C@@H](C)/C=C/C=C/C=C/C=C/C=C/C=C/C=C/[C@H](O[C@@H]2O[C@H](C)[C@@H](O)[C@H](N)[C@@H]2O)C[C@@H]2O[C@](O)(C[C@@H](O)C[C@@H](O)[C@H](O)CC[C@@H](O)C[C@@H](O)CC(=O)O[C@H]1C)C[C@H](O)[C@H]2NC(=O)NCCNC(=N)N [I-67]	0.25

Let's switch to this molecule now.
What measured MIC goes with C[C@@H]1[C@H](O)[C@@H](C)/C=C/C=C/C=C/C=C/C=C/C=C/C=C/[C@H](O[C@@H]2O[C@H](C)[C@@H](O)[C@H](N)[C@@H]2O)C[C@@H]2O[C@](O)(C[C@@H](O)C[C@@H](O)[C@H](O)CC[C@@H](O)C[C@@H](O)CC(=O)O[C@H]1C)C[C@H](O)[C@H]2NC(=O)NNC(=O)CCC(=O)O [I-261] ?
0.5

src = patent US10696707B2
